Values compiled from ChEMBL document CHEMBL3988442.

SYSTEM NAME: Proteasome subunit beta (Trypanosoma cruzi) (UniProt O96673)
Sequence (O96673 as listed by the source): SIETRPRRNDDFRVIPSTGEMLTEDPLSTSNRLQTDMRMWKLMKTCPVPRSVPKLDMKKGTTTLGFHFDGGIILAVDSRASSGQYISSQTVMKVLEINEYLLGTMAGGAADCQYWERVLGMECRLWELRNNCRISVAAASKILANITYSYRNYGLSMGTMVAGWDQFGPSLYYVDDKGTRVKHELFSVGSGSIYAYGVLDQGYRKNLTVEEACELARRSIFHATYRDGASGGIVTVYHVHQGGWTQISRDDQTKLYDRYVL
ASSAY COMMENT: Trypanosoma cruzi proteasome chymotrypsin-like activity (TcProtChymo) assay. Also: in the data most compounds retested in dose-response had high values.
Assay type: functional
Set-up: scale not given: direction of the effect not stated beside the values
CONDITION: 9.37 µM
Rule: T for Percent Effect not less than 10%, F for anything less.

Solved cases (5 shown):
O=C(NCc1ccccn1)NC1CCOc2ccccc21 (configuration not stated) ... F
O=C1COC2(CCN(Cc3cccs3)CC2)CN1c1ccccc1 ... F
c1cnnc(N2CCCC2CNCc2nc3ccccc3o2)c1 (configuration not stated) ... T
Cc1ccc(C(=O)CCC(=O)N2CCC(c3nncn3C)CC2)cc1 ... T
CCN1CCCn2c(nc(CNC(=O)c3ccsc3)cc2=O)C1 ... T

Input line: Given CC(C)Oc1ncnc2c1CCN(C(=O)c1cccn1C)CC2 , state whether its Percent Effect is at least 10%.
Output line: T

Input line: Tell me whether Percent Effect is at least 10% here: COC(=O)C(c1cc(F)ccc1F)N(C)C(=O)c1csnn1 (configuration not stated)
Output line: T

Input line: I'd appreciate it if you could say whether CC(C)S(=O)(=O)NCC1CCCN(C(=O)c2ccc3c(c2)CCC3)C1 (configuration not stated) has Percent Effect at least equal to 10%.
Output line: F

Input line: Check the entry Cc1cc(C)n(C2CCCN(C(=O)c3ccc(NC4CC4)nc3)C2)n1 (configuration not stated) : does Percent Effect equal or exceed 10%?
Output line: F

* * *

Measured Percent Effect values are reported for all entries that follow.
SYSTEM NAME: Chromo domain-containing protein 1 (Saccharomyces cerevisiae (strain ATCC 204508 / S288c) (Baker's yeast))
ASSAY COMMENT: ScCHD-1 Enzyme Inhibition Assay; also: in the data most compounds retested in dose-response had high values
Assay type: functional
Parameters: scale not given: direction of the effect not stated beside the values
CONDITION: 30 µM
Give just the number in %; leave the unit off.

# count of solved cases: 5
CN(Cc1ccc2c(c1)OCCO2)C(=O)NCCc1cnn(C)c1 ... -6.78
CNc1nc(CNC(=O)Nc2cccc(-c3nnco3)c2)cs1 ... 4.29
Cc1noc(CCCC(=O)NC(C)c2cn(-c3ccccc3)nn2)n1 (centres undefined) ... -6.39
COCc1nc2cc(NCc3ccc(C)o3)ccc2o1 ... -2.51
CC(Cn1cccn1)NC(=O)Nc1nnc(C2CC2)s1 (centres undefined) ... -5.78

According to the records, this molecule CC(OCC(F)(F)F)C(=O)Nc1ccc(-n2cncn2)nc1 (centres undefined) displays Percent Effect of -17.1

Form: molecule = COCCN(C)Cc1ccc(OC)c(OC(F)F)c1 ; Percent Effect = 2.42

Reported Percent Effect of Cc1cc(C)cc(NS(=O)(=O)c2cc3c(c(C(=O)O)c2)OCCO3)c1 : -26.1

Percent Effect for Cc1ccc2oc(CNC(C)c3nnc4n3CCCC4)cc2c1 (centres undefined) is 1.91

Lab note: COc1cc2nc3n(c(=O)c2cc1OC)CCN(C(C)=O)CC3 gave Percent Effect of -1.39

* * *

Below, each of the molecules is paired with its reported Percent Effect value.
SYSTEM NAME: Protein translocase subunit SecA (Escherichia coli (strain K12)) (UniProt P10408)
Sequence (P10408 whole entry): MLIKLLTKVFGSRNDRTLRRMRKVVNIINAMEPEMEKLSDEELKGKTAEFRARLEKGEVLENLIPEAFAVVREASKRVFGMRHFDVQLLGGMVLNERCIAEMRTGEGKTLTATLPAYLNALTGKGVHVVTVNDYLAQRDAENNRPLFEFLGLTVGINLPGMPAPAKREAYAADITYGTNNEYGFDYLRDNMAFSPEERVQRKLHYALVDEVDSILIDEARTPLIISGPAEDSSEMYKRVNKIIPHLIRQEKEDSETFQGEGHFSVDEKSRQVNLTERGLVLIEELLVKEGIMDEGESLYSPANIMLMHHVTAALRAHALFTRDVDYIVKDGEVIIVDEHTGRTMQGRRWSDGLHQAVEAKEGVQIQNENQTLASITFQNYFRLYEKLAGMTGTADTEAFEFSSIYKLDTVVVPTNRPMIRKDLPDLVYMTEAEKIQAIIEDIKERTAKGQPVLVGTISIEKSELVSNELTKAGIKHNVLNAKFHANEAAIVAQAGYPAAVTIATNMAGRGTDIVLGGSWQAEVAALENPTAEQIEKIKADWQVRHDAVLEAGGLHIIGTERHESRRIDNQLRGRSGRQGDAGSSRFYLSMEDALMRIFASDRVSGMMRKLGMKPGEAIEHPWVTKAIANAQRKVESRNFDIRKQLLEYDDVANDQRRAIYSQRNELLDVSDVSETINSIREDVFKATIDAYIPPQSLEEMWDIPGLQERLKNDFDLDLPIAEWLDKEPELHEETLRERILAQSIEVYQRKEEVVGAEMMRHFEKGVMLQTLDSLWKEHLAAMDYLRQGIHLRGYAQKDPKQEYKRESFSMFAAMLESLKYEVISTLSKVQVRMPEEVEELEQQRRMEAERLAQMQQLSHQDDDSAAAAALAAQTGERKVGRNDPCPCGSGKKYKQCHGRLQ
ASSAY COMMENT: Assay to Identify E. coli SecA ATPase Inhibitors
Assay type: functional
Design: scale not given: direction of the effect not stated beside the values
CONDITION: 30 µM
Potency and affinity values are given separately.
Numeric only. Scale: %

Here are 5 molecules together with their reported answers.
Cc1nc(CN2CCC3(CCCN(Cc4cnn(C)c4)C3)C2=O)cs1 (stereo unspecified) ... 2.6
Cc1scc(C(=O)N2CCC3(CC(=O)NC3=O)C2)c1-c1ccccc1 (stereo unspecified) ... -2.27
O=C(CCCn1cncn1)NC1(c2ccccc2)CCC1 ... -7.52
CC(C)c1n[nH]c(C2CN(C(=O)c3cccc4cn[nH]c34)CCO2)n1 (stereo unspecified) ... -1.73
Cc1ccsc1CNC(=O)Cc1c(C)nc2c(c1C)c(=O)[nH]n2C ... -4.14

Entry Cc1nc(CN2CCN(C(=O)c3cc(C4CC4)on3)CC2)cs1 under Protein translocase subunit SecA (Escherichia coli (strain K12)) (UniProt P10408) had Percent Effect of -6.45

* * *

Reported Percent Effect values for a set of molecules
SYSTEM NAME: Tyrosyl-tRNA synthetase, putative (Trypanosoma cruzi (strain CL Brener)) (UniProt Q4DSP6)
Sequence (Q4DSP6 as listed by the source): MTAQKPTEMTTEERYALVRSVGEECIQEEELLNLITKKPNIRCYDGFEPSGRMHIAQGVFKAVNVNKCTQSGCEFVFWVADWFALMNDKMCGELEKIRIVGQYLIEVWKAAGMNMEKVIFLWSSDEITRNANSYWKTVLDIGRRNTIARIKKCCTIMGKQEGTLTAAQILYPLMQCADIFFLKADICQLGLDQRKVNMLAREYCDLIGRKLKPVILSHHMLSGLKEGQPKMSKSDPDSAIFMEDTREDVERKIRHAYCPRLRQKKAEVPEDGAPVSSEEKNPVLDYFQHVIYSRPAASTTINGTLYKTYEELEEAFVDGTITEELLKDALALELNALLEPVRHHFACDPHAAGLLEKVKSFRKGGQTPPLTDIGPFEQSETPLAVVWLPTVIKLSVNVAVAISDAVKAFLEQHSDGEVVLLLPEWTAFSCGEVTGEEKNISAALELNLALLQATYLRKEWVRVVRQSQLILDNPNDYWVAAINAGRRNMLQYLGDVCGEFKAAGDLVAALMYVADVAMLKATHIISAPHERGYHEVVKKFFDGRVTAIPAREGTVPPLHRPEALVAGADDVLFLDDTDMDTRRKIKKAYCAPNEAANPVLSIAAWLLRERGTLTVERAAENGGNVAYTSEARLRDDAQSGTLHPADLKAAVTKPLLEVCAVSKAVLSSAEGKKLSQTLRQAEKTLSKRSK
ASSAY COMMENT: Trypanosoma cruzi tyrosyl tRNA synthetase (TcYRS) _High Tyrosine SOP; also: in the data most compounds retested in dose-response had high values
Type: functional
Parameters: scale not given: direction of the effect not stated beside the values
CONDITION: 30 µM
# unit: % | format: bare number

Below, 10 molecules whose answers are already recorded.
CC(CNC(=O)c1ccc(F)cc1Cl)N1CCCC1 (stereo not given) ... 3.16
c1ccc(CN2CCCC2Cn2cncn2)nc1 (stereo not given) ... 9.36
Cc1ccc(-c2nc(CNC3CCc4ncnn4C3)co2)c(C)c1 (stereo not given) ... 10.7
CC(C)c1cc(NC(=O)CN2CCCC2Cn2cccn2)on1 (stereo not given) ... 7.39
COc1cc(N2C[C@@H]3COC[C@]3(COc3cccnc3)C2)ncn1 ... 2.16
CCN(CC)C(=O)CCNc1cncc(-n2nc(C)cc2C)n1 ... 2.15
CCc1ccccc1-n1cc(O)c(C(=O)N2CCCCC2)n1 ... -23.8
CC1CN(CC(=O)Nc2nncs2)CCN1c1nccs1 (stereo not given) ... 4.95
CN(C)c1cc(C(=O)NCCc2n[nH]c(=O)[nH]2)ccn1 ... 3.19
Cc1nn(C)c(C)c1C1CCCN1C(=O)c1ccc(CN(C)C)cc1 (stereo not given) ... -20.8

Noted for CC(C)(C)c1cnc(CN2CCC[C@H]2CO)o1 : its Percent Effect reads 7.77

Percent Effect in this record for Cc1nnc(N2CC[C@H](OCC3CC3)[C@@H](Cc3ccccc3)C2)s1 : 0

The value of Percent Effect measured for the molecule Cc1cnn(CCNCc2nc(-c3ccccc3Cl)no2)c1 turned out to be 5.39

Data point: CC(C)Sc1ncccc1C(=O)NCc1ccc(CS(C)(=O)=O)cc1 ; Percent Effect = 4.17

* * *

Species on record: Homo sapiens
ASSAY COMMENT: To identify inhibition of the IFN signalling (Jak-Stat) pathway via expression of an eGFP reporter gene under the control of an IFN-stimulated response element (ISRE) containing MxA promoter.
Assay type: functional
Parameters: scale not given: direction of the effect not stated beside the values
CONDITION: 30 µM
Use satisfied when the recorded Percent Effect is no lower than 10%; use not satisfied when it is lower.

Previously resolved entries follow.
Cc1cc(C(=O)N2C[C@@H](C(=O)O)[C@H](c3ccccc3C)C2)c(C)o1 ... satisfied
N#CC1CCCN(c2nc(-c3ccccc3)nc3c2CCNCC3)C1 (stereo not drawn) ... not satisfied
O=C(CO)N1CCC(c2cncc(-c3cccc(Cl)c3)n2)CC1 ... not satisfied
CCn1nc(C)c(CNC(=O)c2cn(CC3CCCO3)nn2)c1C (stereo not drawn) ... not satisfied
CCS(=O)(=O)NC[C@]12COC[C@H]1CN(Cc1cccc(OC)c1)C2 ... satisfied

Input line: Is Percent Effect at least 10%? Consider Cc1ccc2c(ccn2CCC(=O)NC[C@@H]2CCCN3CCCC[C@H]23)c1
Output line: not satisfied

Input line: Check if Percent Effect >= 10% (inclusive). Item: CCN1CCN(c2ccc(F)cc2C(C)NCc2noc(C)n2)CC1 (stereo not drawn)
Output line: not satisfied

Input line: Does the molecule O=C(CCC1CCCC1)NCCn1nc(C2CCNC2)c2cccnc21 (stereo not drawn) have recorded Percent Effect that is 10% or more?
Output line: not satisfied

* * *

Tested on: Trypanosoma cruzi
ASSAY COMMENT: Trypanosoma cruzi phosphomannomutase and mannose-1-phosphate guanylyltransferase assay
Assay type: functional
Parameters: scale not given: direction of the effect not stated beside the values
CONDITION: 10 µM
Measured Percent Effect, listed per entry.
Note to self: number, then unit, no commentary.

Worked set:
CNC(=O)[C@H]1C[C@@H]2CN(C(=O)c3cscn3)C[C@@H]2N1S(C)(=O)=O ... -4.05%
Cc1ccc(-n2nnc(C(=O)Nc3cc(C)nn3C)c2C2CC2)cc1 ... -3.99%
CN(Cc1nccs1)c1nc(-c2ccccn2)nc2c1CCNCC2 ... 4.57%

Noted Percent Effect for CC(=O)NCC(=O)N1CCC2(CC1)CN(c1cccnc1)C(=O)CO2 , tested on Trypanosoma cruzi: -3.42%

I looked up O=C(NCC1CC1)[C@H]1C[C@@H]2CN(S(=O)(=O)Cc3ccccc3)C[C@H]1O2 and its Percent Effect for Trypanosoma cruzi was -6.5%

Sample CC(C)c1nnc2n1CCN(CCCS(=O)(=O)c1ccccc1)C2 , system: Trypanosoma cruzi. Its Percent Effect is 6.18%

Tested system Trypanosoma cruzi; Percent Effect recorded for Cc1noc(C)c1CN(C)CC1CCCN1c1cccnn1 (stereo unspecified) was 0.0979%

Reported Percent Effect (Trypanosoma cruzi) for entry Cc1nc(CN2C(=O)COC3(CCN(Cc4nccs4)CC3)C2C)cs1 (stereo unspecified) is 4.56%

Item CC1CCCN(CC(=O)N2CCC(c3ncc4c(n3)CCNC4)CC2)C1 (stereo unspecified) was tested on Trypanosoma cruzi; the reported Percent Effect is 0.394%

Param item: NC(=O)C1CN(C(=O)Nc2ccccc2N2CCCCCC2)CCO1 (stereo unspecified) ; param system: Trypanosoma cruzi; output Percent Effect: 6.96%

Measured on Trypanosoma cruzi, CC(C)c1cc2c(O)nc(CSCC(=O)O)nc2s1 has a documented Percent Effect of 3.93%
